System: 569 E. faecium (GRE)
Assay: MIC, broth microdilution in Meuller-Hinton broth (NCCLS)
Format: cell-based
Conditions: glycopeptide-resistant clinical isolate

{"columns": ["COMPOUND", "TARGET ENTITY", "MIC 569 E. faecium (GRE)"],
 "data": [
  ["CNC(CC(C)C)C(=O)NC1C(=O)NC(CC(N)=O)C(=O)NC2C(=O)NC3C(=O)NC(C(=O)NC(C(=O)NC(C)C45CC6CC(CC(C6)C4)C5)c4cc(O)cc(O)c4-c4cc3ccc4O)C(OC3CC(C)(N)C(O)C(C)O3)c3ccc(cc3)Oc3cc2cc(c3OC2OC(CO)C(O)C(O)C2OC2CC(C)(N)C(O)C(C)O2)Oc2ccc(cc2Cl)C1O (stereo not drawn)", "569 E. faecium (GRE)", "16 µg/mL"],
  ["CNC(CC(C)C)C(=O)NC1C(=O)NC(CC(N)=O)C(=O)NC2C(=O)NC3C(=O)NC(C(=O)NC(C(=O)O)c4cc(O)cc(O)c4-c4cc3ccc4O)C(OC3CC(C)(N)C(O)C(C)O3)c3ccc(cc3)Oc3cc2cc(c3OC2OC(CO)C(O)C(O)C2OC2CC(C)(NC(=O)C(N)CCCCN)C(O)C(C)O2)Oc2ccc(cc2Cl)C1O (stereo not drawn)", "569 E. faecium (GRE)", "16 µg/mL"],
  ["CNC(CC(C)C)C(=O)NC1C(=O)NC(CC(N)=O)C(=O)NC2C(=O)NC3C(=O)NC(C(=O)NC(C(=O)O)c4cc(O)cc(O)c4-c4cc3ccc4O)C(OC3CC(C)(N)C(O)C(C)O3)c3ccc(cc3)Oc3cc2cc(c3OC2OC(CO)C(O)C(O)C2OC2CC(C)(NC(=O)[C@@H](N)Cc3ccc(OCc4ccccc4)cc3)C(O)C(C)O2)Oc2ccc(cc2Cl)C1O (stereo partly drawn)", "569 E. faecium (GRE)", ">64 µg/mL"]
]}

----------
System: 559 E. faecalis (GSE)
Test: MIC, broth microdilution in Meuller-Hinton broth (NCCLS)
Type: cell-based, Enterococcus faecalis
Details: glycopeptide-sensitive clinical isolate
The following molecules are shown together with reported MIC 559 E. faecalis (GSE) values.
READOUT: MIC 559 E. faecalis (GSE) (µg/mL)

{"columns": ["MOLECULE", "VALUE UNIT", "OBSERVED RESULT"],
 "data": [
  ["CNC(CC(C)C)C(=O)NC1C(=O)NC(CC(N)=O)C(=O)NC2C(=O)NC3C(=O)NC(C(=O)NC(C(=O)O)c4cc(O)cc(O)c4-c4cc3ccc4O)C(OC3CC(C)(N)C(O)C(C)O3)c3ccc(cc3)Oc3cc2cc(c3OC2OC(CO)C(O)C(O)C2OC2CC(C)(NC(=O)CNCc3ccc(OCc4ccccc4)cc3)C(O)C(C)O2)Oc2ccc(cc2Cl)C1O (stereo not drawn)", "µg/mL", 2],
  ["CNC(CC(C)C)C(=O)NC1C(=O)NC(CC(N)=O)C(=O)NC2C(=O)NC3C(=O)NC(C(=O)NC(C(=O)NC4C5CC6CC(C5)CC4C6)c4cc(O)cc(O)c4-c4cc3ccc4O)C(OC3CC(C)(N)C(O)C(C)O3)c3ccc(cc3)Oc3cc2cc(c3OC2OC(CO)C(O)C(O)C2OC2CC(C)(N)C(O)C(C)O2)Oc2ccc(cc2Cl)C1O (stereo not drawn)", "µg/mL", 0.5],
  ["CCCCc1ccc(CNCC(=O)NC2(C)CC(OC3C(Oc4c5cc6cc4Oc4ccc(cc4Cl)C(O)C(NC(=O)C(CC(C)C)NC)C(=O)NC(CC(N)=O)C(=O)NC6C(=O)NC4C(=O)NC(C(=O)NC(C(=O)NC6C7CC8CC(C7)CC6C8)c6cc(O)cc(O)c6-c6cc4ccc6O)C(OC4CC(C)(N)C(O)C(C)O4)c4ccc(cc4)O5)OC(CO)C(O)C3O)OC(C)C2O)cc1 (stereo not drawn)", "µg/mL", 8]
]}

----------
// MIC 3797 S. aureus (GISA) lookup, one value per entry
Test system: 3797 S. aureus (GISA)
Assay: MIC, broth microdilution in Meuller-Hinton broth (NCCLS)
Format: cell-based, Staphylococus aureus
Details: glycopeptides-intermediate clinical isolate

{"columns": ["COMPOUND", "MIC 3797 S. aureus (GISA)"],
 "data": [
  ["CCCCc1ccc(CNCC(=O)NC2(C)CC(OC3C(Oc4c5cc6cc4Oc4ccc(cc4Cl)C(O)C4NC(=O)C(NC(=O)C6NC(=O)C(CC(N)=O)NC(=O)C(NC(=O)C(CC(C)C)NC)C(O)c6ccc(c(Cl)c6)O5)c5ccc(O)c(c5)-c5c(O)cc(O)cc5C(C(=O)O)NC4=O)OC(CO)C(O)C3O)OC(C)C2O)cc1 (centres unmarked)", "2 µg/mL"],
  ["CCCCOc1ccc(CNCC(=O)NC2(C)CC(OC3C(Oc4c5cc6cc4Oc4ccc(cc4Cl)C(O)C(NC(=O)C(CC(C)C)NC)C(=O)NC(CC(N)=O)C(=O)NC6C(=O)NC4C(=O)NC(C(=O)NC(C(=O)O)c6cc(O)cc(O)c6-c6cc4ccc6O)C(OC4CC(C)(N)C(O)C(C)O4)c4ccc(cc4)O5)OC(CO)C(O)C3O)OC(C)C2O)cc1 (centres unmarked)", "4 µg/mL"]
]}

----------
Tested on: 569 E. faecium (GRE)
Assay: MIC, broth microdilution in Meuller-Hinton broth (NCCLS)
Assay type: cell-based
Conditions: glycopeptide-resistant clinical isolate
The entries below come with measured MIC 569 E. faecium (GRE) values attached.

{"columns": ["COMPOUND", "VALUE UNIT", "READING QUALIFIER", "MIC 569 E. faecium (GRE)"],
 "data": [
  ["CCCCN(CCCC)c1ccc(CNCC(=O)NC2(C)CC(OC3C(Oc4c5cc6cc4Oc4ccc(cc4Cl)C(O)C(NC(=O)C(CC(C)C)NC)C(=O)NC(CC(N)=O)C(=O)NC6C(=O)NC4C(=O)NC(C(=O)NC(C(=O)O)c6cc(O)cc(O)c6-c6cc4ccc6O)C(OC4CC(C)(N)C(O)C(C)O4)c4ccc(cc4)O5)OC(CO)C(O)C3O)OC(C)C2O)cc1 (stereo not drawn)", "µg/mL", "=", 32],
  ["CCCCc1ccc(CN[C@@H](CCCN)C(=O)NC2(C)CC(OC3C(Oc4c5cc6cc4Oc4ccc(cc4Cl)C(O)C(NC(=O)C(CC(C)C)NC)C(=O)NC(CC(N)=O)C(=O)NC6C(=O)NC4C(=O)NC(C(=O)NC(C(=O)O)c6cc(O)cc(O)c6-c6cc4ccc6O)C(OC4CC(C)(N)C(O)C(C)O4)c4ccc(cc4)O5)OC(CO)C(O)C3O)OC(C)C2O)cc1 (stereo partly drawn)", "µg/mL", "=", 8],
  ["CNC(CC(C)C)C(=O)NC1C(=O)NC(CC(N)=O)C(=O)NC2C(=O)NC3C(=O)NC(C(=O)NC(C(=O)O)c4cc(O)cc(O)c4-c4cc3ccc4O)C(OC3CC(C)(N)C(O)C(C)O3)c3ccc(cc3)Oc3cc2cc(c3OC2OC(CO)C(O)C(O)C2OC2CC(C)(NC(=O)[C@H](N)Cc3ccccc3)C(O)C(C)O2)Oc2ccc(cc2Cl)C1O (stereo partly drawn)", "µg/mL", ">", 64],
  ["CCCCc1ccc(CNCC(=O)NC2(C)CC(OC3C(Oc4c5cc6cc4Oc4ccc(cc4Cl)C(O)C4NC(=O)C(NC(=O)C6NC(=O)C(CC(N)=O)NC(=O)C(NC(=O)C(CC(C)C)NC)C(O)c6ccc(c(Cl)c6)O5)c5ccc(O)c(c5)-c5c(O)cc(O)cc5C(C(=O)O)NC4=O)OC(CO)C(O)C3O)OC(C)C2O)cc1 (stereo not drawn)", "µg/mL", "=", 32],
  ["CNC(CC(C)C)C(=O)NC1C(=O)NC(CC(N)=O)C(=O)NC2C(=O)NC3C(=O)NC(C(=O)NC(C(=O)O)c4cc(O)cc(O)c4-c4cc3ccc4O)C(O)c3ccc(c(Cl)c3)Oc3cc2cc(c3OC2OC(CO)C(O)C(O)C2OC2CC(C)(NC(=O)CNCc3ccc(-c4ccc(Cl)cc4)cc3)C(O)C(C)O2)Oc2ccc(cc2Cl)C1O (stereo not drawn)", "µg/mL", "=", 16],
  ["CCCCOc1ccc(CNCC(=O)NC2(C)CC(OC3C(Oc4c5cc6cc4Oc4ccc(cc4Cl)C(O)C(NC(=O)C(CC(C)C)NC)C(=O)NC(CC(N)=O)C(=O)NC6C(=O)NC4C(=O)NC(C(=O)NC(C(=O)O)c6cc(O)cc(O)c6-c6cc4ccc6O)C(OC4CC(C)(N)C(O)C(C)O4)c4ccc(cc4)O5)OC(CO)C(O)C3O)OC(C)C2O)cc1 (stereo not drawn)", "µg/mL", "=", 64],
  ["CCCCc1ccc(CNCC(=O)NC2(C)CC(OC3C(Oc4c5cc6cc4Oc4ccc(cc4Cl)C(O)C4NC(=O)C(NC(=O)C6NC(=O)C(CC(N)=O)NC(=O)C(NC(=O)C(CC(C)C)NC)C(O)c6ccc(c(Cl)c6)O5)c5ccc(O)c(c5)-c5c(O)cc(O)cc5C(C(=O)NCc5ccc(F)cc5)NC4=O)OC(CO)C(O)C3O)OC(C)C2O)cc1 (stereo not drawn)", "µg/mL", "=", 16],
  ["CCCCCCCCCCN(CCCCCCCCCC)CC(=O)NC1(C)CC(OC2C(Oc3c4cc5cc3Oc3ccc(cc3Cl)C(O)C(NC(=O)C(CC(C)C)NC)C(=O)NC(CC(N)=O)C(=O)NC5C(=O)NC3C(=O)NC(C(=O)NC(C(=O)O)c5cc(O)cc(O)c5-c5cc3ccc5O)C(OC3CC(C)(N)C(O)C(C)O3)c3ccc(cc3)O4)OC(CO)C(O)C2O)OC(C)C1O (stereo not drawn)", "µg/mL", "=", 8],
  ["CCCCCCCCOc1ccc(CNCC(=O)NC2(C)CC(OC3C(Oc4c5cc6cc4Oc4ccc(cc4Cl)C(O)C4NC(=O)C(NC(=O)C6NC(=O)C(CC(N)=O)NC(=O)C(NC(=O)C(CC(C)C)NC)C(O)c6ccc(c(Cl)c6)O5)c5ccc(O)c(c5)-c5c(O)cc(O)cc5C(C(=O)NCc5ccc(F)cc5)NC4=O)OC(CO)C(O)C3O)OC(C)C2O)cc1 (stereo not drawn)", "µg/mL", "=", 8],
  ["CNC(CC(C)C)C(=O)NC1C(=O)NC(CC(N)=O)C(=O)NC2C(=O)NC3C(=O)NC(C(=O)NC(C(=O)O)c4cc(O)cc(O)c4-c4cc3ccc4O)C(OC3CC(C)(N)C(O)C(C)O3)c3ccc(cc3)Oc3cc2cc(c3OC2OC(CO)C(O)C(O)C2OC2CC(C)(NC(=O)CNC(=O)OC34CC5CC(CC(C5)C3)C4)C(O)C(C)O2)Oc2ccc(cc2Cl)C1O (stereo not drawn)", "µg/mL", ">", 64],
  ["CCCCc1ccc(CNCC(=O)NC2(C)CC(OC3C(Oc4c5cc6cc4Oc4ccc(cc4Cl)C(O)C(NC(=O)C(CC(C)C)NC)C(=O)NC(CC(N)=O)C(=O)NC6C(=O)NC4C(=O)NC(C(=O)NC(C(=O)O)c6cc(O)cc(O)c6-c6cc4ccc6O)C(OC4CC(C)(N)C(O)C(C)O4)c4ccc(cc4)O5)OC(CO)C(O)C3O)OC(C)C2O)cc1 (stereo not drawn)", "µg/mL", "=", 4],
  ["CNC(CC(C)C)C(=O)NC1C(=O)NC(CC(N)=O)C(=O)NC2C(=O)NC3C(=O)NC(C(=O)NC(C(=O)O)c4cc(O)cc(O)c4-c4cc3ccc4O)C(OC3CC(C)(N)C(O)C(C)O3)c3ccc(cc3)Oc3cc2cc(c3OC2OC(CO)C(O)C(O)C2OC2CC(C)(NC(=O)[C@@H](N)Cc3ccccc3)C(O)C(C)O2)Oc2ccc(cc2Cl)C1O (stereo partly drawn)", "µg/mL", ">", 64]
]}
